assay: Lipid nanoparticle size by dynamic light scattering (Malvern Zetasizer Nano ZS); assay type: physicochemical; settings: LNP: cationic lipid/DSPC/cholesterol/PEG-lipid 50:10:38.5:1.5, hEPO mRNA; Table 3
polydispersity vs 0.07: less than gives class 1; not less than gives class 0.

>>> label_value("CCCCCCC(CCCCCC)COC(=O)CCCCCN(CCCCCC(=O)OCC(CCCCCC)CCCCCC)CCN(CCO)C1CCC1 [Compound 48]")
"class 1"
>>> label_value("CCCCCCCCC(CCCCCC)COC(=O)CCCCCN(CCCCCC(=O)OCC(CCCCCC)CCCCCCCC)CCN(CCCCC)C1CCC(O)CC1 (stereo not shown) [Compound 61]")
"class 0"
>>> label_value("CCCCCCCCCCCOC(=O)CCCCCN(CCCCCC(=O)NCC(CCCCCCCC)CCCCCCCC)CCN(CCO)C1CC1 [Compound 151]")
"class 1"
>>> label_value("CCCCCCC(CCCCCC)CC(=O)NCCCCCN(CCCCCOC(=O)CC(CCCCCC)CCCCCC)CCN(CCO)C1CCCCCC1 [Compound 142]")
"class 1"
>>> label_value("CCCCCCCCC(CCCCCCCC)COC(=O)CCCCCN(CCCCCC(=O)OCC(CCCCCCCC)CCCCCCCC)CCN(CCCC)C1CCC(O)CC1 (stereo not shown) [Compound 67]")
"class 1"
>>> label_value("CCCCCCCCCCCOC(=O)CCCCCN(CCCCCC(=O)NCC(CCCCCCCC)CCCCCCCC)CCN(CCO)C1CCC1 [Compound 146]")
"class 1"
>>> label_value("CCCCCCCCC(CCCCCC)COC(=O)CCCCCC(CCCCCC(=O)OCC(CCCCCC)CCCCCCCC)CN(C)CCO (stereo not shown) [Compound 14]")
"class 0"

====

A collection of compounds and their measured Encapsulation Efficiency
test: Encapsulation efficiency of lipid nanoparticles (Quant-it Ribogreen RNA quantification assay); format: physicochemical; settings: LNP encapsulating hEPO mRNA; Table 3
measured property: Encapsulation Efficiency (%)

>>> meas_value("CCCCCCCCC(CCCCCC)COC(=O)CCCCCCN(CCCCCCC(=O)OCC(CCCCCC)CCCCCCCC)CCN(CCO)C1CCC1 (stereo not shown)")
97.0
>>> meas_value("CCCCCCCCC(CCCCCC)CNC(=O)CCCCCN(CCCCCC(=O)NCC(CCCCCC)CCCCCCCC)CCN(CCO)C1CCCC1 (stereo not shown)")
89.0
>>> meas_value("CCCCCCCCC(CCCCCCCC)COC(=O)CCCCCN(CCCCCC(=O)OCC(CCCCCCCC)CCCCCCCC)CCN(CCC)C1CCC(O)CC1 (stereo not shown)")
84.3
>>> meas_value("CCCCCCCCC(CCCCCC)COC(=O)CCCCCC(CCCCCC(=O)OCC(CCCCCC)CCCCCCCC)CN(C)CCO (stereo not shown)")
94.9
>>> meas_value("CCCCCCCCC(CCCCCC)CC(=O)NCCCCCN(CCCCCOC(=O)CC(CCCCCC)CCCCCCCC)CCN(CCO)C1CCC1 (stereo not shown)")
95.6
>>> meas_value("CCCCCCCCC(CCCCCC)CC(=O)NCCCCCN(CCCCCOC(=O)CC(CCCCCC)CCCCCCCC)CCN(CCO)C1CCCC1 (stereo not shown)")
92.50
>>> meas_value("CCCCCCCCC(CCCCCC)COC(=O)CCCCCN(CCCCCC(=O)OCC(CCCCCC)CCCCCCCC)CCN(CCO)C1CCC(F)(F)CC1 (stereo not shown)")
93.9
>>> meas_value("CCCCCCCCC(CCCCCC)CNC(=O)CCCCCN(CCCCCC(=O)OCC(CCCCCC)CCCCCCCC)CCN(CCC)C1CCC(O)CC1 (stereo not shown)")
90.6
>>> meas_value("CCCCCCCCC(CCCCCCCC)COC(=O)CCCCCN(CCCCCC(=O)OCC(CCCCCCCC)CCCCCCCC)CCN(CCO)C1CCC(F)(F)CC1")
92.4
>>> meas_value("CCCCCCCCC(CCCCCC)COC(=O)CCCCN(CCCCC(=O)OCC(CCCCCC)CCCCCCCC)CCN(CCO)C1CCC1 (stereo not shown)")
98.3
>>> meas_value("CCCCCCCCC(CCCCCC)COC(=O)CCCCCN(CCCCCC(=O)OCC(CCCCCC)CCCCCCCC)CCN1CCC(O)CC1 (stereo not shown)")
96.9
>>> meas_value("CCCCCCC(CCCCCC)CC(=O)NCCCCCN(CCCCCOC(=O)CC(CCCCCC)CCCCCC)CCN(CCO)C1CCCCC1")
88.2
>>> meas_value("CCCCCCCCC(CCCCCC)COC(=O)CCCCCC(CCCCCC(=O)OCC(CCCCCC)CCCCCCCC)CN(CC)CCO (stereo not shown)")
98.87

====

Experiment: Encapsulation efficiency of lipid nanoparticles (Quant-it Ribogreen RNA quantification assay)
Format: physicochemical
Settings: LNP encapsulating hEPO mRNA; Table 3
Procedure: Briefly, a cationic lipid provided herein, DSPC, cholesterol, and PEG-lipid were solubilized in ethanol at a molar ratio of 50:10:38.5:1.5, and mRNA were diluted in 10 to 50 mM citrate buffer, pH=4. […] Lipid nanoparticle size were determined by dynamic light scattering using a Malvern Zetasizer Nano ZS (Malvern UK) using a 173° backscatter detection mode. […]
A collection of compounds and their measured Encapsulation Efficiency
measured property: Encapsulation Efficiency (%)

>>> meas_value("CCCCCCCCC(CCCCCC)C(=O)OCCCCCCCCCN(CCCCCCCCCOC(=O)C(CCCCCC)CCCCCCCC)CCN(CCO)C1CCC1 (centres unmarked)")
97.5
>>> meas_value("CCCCCCCCC(CCCCCCCC)CNC(=O)CCCCCN(CCCCCC(=O)OCC(CCCCCCCC)CCCCCCCC)CCN(CCO)C1CCCC1")
94.29
>>> meas_value("CCCCCCCCC(CCCCCC)COC(=O)NCCCCN(CCCCNC(=O)OCC(CCCCCC)CCCCCCCC)CCN(CCO)C1CCC1 (centres unmarked)")
98.4
>>> meas_value("CCCCCCCCCCCOC(=O)CCCCCN(CCCCCC(=O)OCC(CCCCCCCC)CCCCCCCC)CCN(CCO)C1CCCCC1")
93.5
>>> meas_value("CCCCCCCCCCCOC(=O)CCCCCN(CCCCCC(=O)OCC(CCCCCCCC)CCCCCCCC)CCN(CCO)C1CCCC1")
94.7
>>> meas_value("CCCCCCCCC(CCCCCCCC)CC(=O)NCCCCCN(CCCCCNC(=O)CC(CCCCCCCC)CCCCCCCC)CCN(CCO)C1CCCCCC1")
95.0
>>> meas_value("CCCCCCCCC(CCCCCC)CNC(=O)NCCCCN(CCCCNC(=O)NCC(CCCCCC)CCCCCCCC)CCN(CCO)C1CCCCC1 (centres unmarked)")
89.4
>>> meas_value("CCCCCCCCC(CCCCCC)CC(=O)NCCCCCN(CCCCCNC(=O)CC(CCCCCC)CCCCCCCC)CCN(CCO)C1CCCC1 (centres unmarked)")
89.3
>>> meas_value("CCCCCCCCC(CCCCCC)COC(=O)CCCCCN(CCCCCC(=O)OCC(CCCCCC)CCCCCCCC)CCN(CCCCCCO)C1CCC1 (centres unmarked)")
95.9
>>> meas_value("CCCCCCCCC(CCCCCC)COC(=O)CCCCCC(CCCCCC(=O)OCC(CCCCCC)CCCCCCCC)CN(CCO)C1CCCCCCC1 (centres unmarked)")
18.18
>>> meas_value("CCCCCCCCC(CCCCCCCC)COC(=O)CCCCCN(CCCCCC(=O)OCC(CCCCCCCC)CCCCCCCC)CCN(CCCCCC)C1CCC(O)CC1 (centres unmarked)")
94.1
>>> meas_value("CCCCCCC(CCCCCC)CC(=O)NCCCCCN(CCCCCOC(=O)CC(CCCCCC)CCCCCC)CCN(CCO)C1CCCC1")
88.4
>>> meas_value("CCCCCCCCC(CCCCCCCC)COC(=O)CCOCCN(CCOCCC(=O)OCC(CCCCCCCC)CCCCCCCC)CCN(CCO)C1CCC1")
94.10
>>> meas_value("CCCCCCCCC(CCCCCC)COC(=O)CCCCCN(CCCCCC(=O)OCC(CCCCCC)CCCCCCCC)CCN(C(C)C)C1CCC(O)CC1 (centres unmarked)")
96.1
>>> meas_value("CCCCCCCCC(O)CN(CCN(CCCCCC(=O)OCC(CCCCCC)CCCCCCCC)CCCCCC(=O)OCC(CCCCCC)CCCCCCCC)C1CCC1 (centres unmarked)")
96.1
>>> meas_value("CCCCCCCCC(CCCCCC)COC(=O)CCCCCN(CCCCCC(=O)OCC(CCCCCC)CCCCCCCC)CCN(C1CCCCC1)C1CC(O)C1 (centres unmarked)")
95.2
>>> meas_value("CCCCCCCCC(CCCCCC)COC(=O)CCCCCN(CCCCCC(=O)OCC(CCCCCC)CCCCCCCC)CCN(CCCCCCCCO)C1CCC1 (centres unmarked)")
92.4
>>> meas_value("CCCCCCCCCCCOC(=O)CCCCCN(CCCCCC(=O)NCC(CCCCCCCC)CCCCCCCC)CCN(CCO)C1CCCC1")
91.4
>>> meas_value("CCCCCCCCC(CCCCCC)COC(=O)CCCCCN(CCCCCC(=O)OCC(CCCCCC)CCCCCCCC)CCN(C)C1CC(O)C1 (centres unmarked)")
97.7
>>> meas_value("CCCCCCCCCCCOC(=O)CCCCCN(CCCCCC(=O)NCC(CCCCCCCC)CCCCCCCC)CCN(CCO)C1CCC1")
94.6
>>> meas_value("CCCCCCCCC(CCCCCC)CC(=O)COCCCCN(CCCCCOC(=O)CC(CCCCCC)CCCCCCCC)CCN(CCO)C1CCCC1 (centres unmarked)")
96.7
>>> meas_value("CCCCC/C=C\\CCCC(=O)C(CC/C=C\\CCCCC)C(CCC/C=C\\CCCCC)OC(=O)CCCCCN(CCCCCC(=O)OCCC/C=C/CCCCC)CCN(CCO)C1CCC1 (centres unmarked)")
85.5
>>> meas_value("CCCCCCCCC(CCCCCC)COC(=O)CCCCCN(CCCCCC(=O)OCC(CCCCCC)CCCCCCCC)CCN(CCO)C1CCSCC1 (centres unmarked)")
92.1
>>> meas_value("CCCCCCCCC(CCCCCC)CNC(=O)CCCCCN(CCCCCC(=O)NCC(CCCCCC)CCCCCCCC)CCN(CCO)C1CCCCC1 (centres unmarked) [Compound 120]")
97.1
>>> meas_value("CCCCCCC(CCCCCC)COC(=O)CCCCCN(CCCCCC(=O)OCC(CCCCCC)CCCCCC)CCN(CCC)C1CCC(O)CC1 (centres unmarked)")
93.5
>>> meas_value("CCCCCCCCC(CCCCCCCC)COC(=O)CCCCCN(CCCCCC(=O)OCC(CCCCCCCC)CCCCCCCC)CCN(CCO)C1CCOC1 (centres unmarked)")
91.2
